Please provide measured microsomal CLint for the entries that follow.
Assay Method Text: Intrinsic clearance in human liver microsomes assessed as per mg protein
Assay type: ADME, Microsome
Give bare numbers, in µL/min/mg.

- Compound: "Cc1c(Cc2cccnc2)c[nH]c1C(=O)NC1CC1"
  Quantitative Readout: 19
- Compound: "O=C(NC1CC1)c1cc(Cc2ccc(C(F)(F)F)nc2)c[nH]1"
  Quantitative Readout: 31
- Compound: "Cc1c(Cc2ccc(C(F)(F)F)cc2F)c[nH]c1C(=O)NC1CC1"
  Quantitative Readout: 15
- Compound: "Cc1c(Cc2ccc(C(F)(F)F)nc2)c[nH]c1C(=O)N1CC(F)C1"
  Quantitative Readout: 7
- Compound: "CCCNC(=O)c1[nH]c(C)c(Cc2ccc(C(F)(F)F)nc2)c1C"
  Quantitative Readout: 172
- Compound: "Cc1[nH]c(C(=O)NC2CC2)c(C)c1Oc1ccc(C(F)(F)F)nc1"
  Quantitative Readout: 8
- Compound: "Cc1[nH]c(C(=O)NC2CC2)c(C)c1C(=O)c1ccc(C(F)(F)F)cn1"
  Quantitative Readout: 8
- Compound: "Cc1[nH]c(C(=O)N2CCCC2)cc1Cc1ccc(C(F)(F)F)nc1"
  Quantitative Readout: 226

Give microsomal CLint for all compounds that follow.
1. Cc1[nH]c(C(=O)NC2CC2)cc1Cc1ccc(C(F)(F)F)nc1
2. Cc1c(Cc2ccc(C(F)(F)F)cc2)c[nH]c1C(=O)NC1CC1
3. Cc1c(C(O)c2ccc(C(F)(F)F)nc2)c[nH]c1C(=O)NC1CC1 (racemic)
4. Cc1c(Cc2ccc(C(F)(F)F)nc2)c[nH]c1C(=O)N1CC(F)(F)C1
5. Cc1c(Cc2ccc(C(F)(F)F)nc2)c[nH]c1C(=O)NCC(F)(F)F

Result:
36
19
20
21
15
